# cynomolgus TfR1: Kd values follow
observed_property: Kd

compound	observed_property	observed
CC[C@H](C)[C@@H]1NC(=O)[C@@H]2CSCC(=O)N3CN(CN(C3)C(=O)CSC[C@@H](C(=O)N[C@@H](C)C(N)=O)NC(=O)[C@H](Cc3ccncc3)NC(=O)[C@H](CO)NC1=O)C(=O)CSC[C@H](NC(=O)[C@H](C)N)C(=O)N[C@@H](CO)C(=O)N1CCC[C@H]1C(=O)N[C@@H](CC(=O)O)C(=O)N[C@@H](C)C(=O)N[C@@H](Cc1c[nH]cn1)C(=O)N[C@@H](CC(C)C)C(=O)NCC(=O)N2 [BCY16032, A-(SEQ ID NO: 48)-A]	Kd	30 µM
CC[C@H](C)[C@@H]1NC(=O)[C@@H]2CSCC(=O)N3CN(CN(C3)C(=O)CSC[C@@H](C(=O)N[C@@H](CCC(=O)O)C(=O)N3CCC[C@@H]3C(=O)N[C@@H](Cc3c[nH]c4ccccc34)C(N)=O)NC(=O)[C@H](Cc3ccc(O)cc3)NC(=O)[C@H](CO)NC1=O)C(=O)CSC[C@H](NC(C)=O)C(=O)N[C@@H](CO)C(=O)N1CCC[C@H]1C(=O)N[C@@H](CC(=O)O)C(=O)N[C@@H](C)C(=O)N[C@@H](Cc1c[nH]cn1)C(=O)N[C@@H](CC(C)C)C(=O)NCC(=O)N2 [BCY18038, Ac-(SEQ ID NO: 9)-E[dP]W]	Kd	1.65 µM

###

molecular target: human TfR1 (Homo sapiens, UniProt P02786); experiment: biochemical; assay type: binding; design: His6-tagged TfR1 (a.a. 89-760) (ACRO Biosystems, CD1-H5243 and TFR-C524a); His6; purchased R&D Systems or Acro Biosystems 2474-TR or CD1-H5243; conditions: Human TfR1 Ki (nM)
Sequence (P02786 89-760): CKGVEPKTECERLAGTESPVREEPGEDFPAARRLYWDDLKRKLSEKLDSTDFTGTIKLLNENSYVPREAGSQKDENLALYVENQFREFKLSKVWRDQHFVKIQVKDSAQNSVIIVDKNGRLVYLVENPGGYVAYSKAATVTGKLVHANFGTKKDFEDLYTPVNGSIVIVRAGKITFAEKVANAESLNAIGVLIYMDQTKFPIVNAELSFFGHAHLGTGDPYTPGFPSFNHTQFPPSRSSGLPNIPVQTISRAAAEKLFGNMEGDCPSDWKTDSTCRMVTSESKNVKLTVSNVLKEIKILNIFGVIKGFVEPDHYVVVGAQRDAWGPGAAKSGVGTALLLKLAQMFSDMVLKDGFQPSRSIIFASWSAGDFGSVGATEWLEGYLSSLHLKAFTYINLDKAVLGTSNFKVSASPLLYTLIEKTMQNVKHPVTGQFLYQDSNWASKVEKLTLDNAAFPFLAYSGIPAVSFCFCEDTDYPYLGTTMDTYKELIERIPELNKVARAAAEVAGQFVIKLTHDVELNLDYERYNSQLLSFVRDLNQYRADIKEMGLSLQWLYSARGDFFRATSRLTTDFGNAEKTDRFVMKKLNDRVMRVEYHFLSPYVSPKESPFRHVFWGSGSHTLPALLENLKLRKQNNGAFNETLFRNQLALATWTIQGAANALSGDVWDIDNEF
Recorded Ki for the following molecules

molecule	Ki (nM)
CC[C@H](C)[C@@H]1NC(=O)[C@@H]2CSCC(=O)N3CN(CN(C3)C(=O)CSC[C@@H](C(=O)N[C@@H](C)C(N)=O)NC(=O)[C@H](Cc3ccc(O)cc3)NC(=O)[C@H](CO)NC1=O)C(=O)CSC[C@H](NC(=O)[C@H](C)N)C(=O)N[C@@H](CO)C(=O)N1C[C@H](O)C[C@H]1C(=O)N[C@@H](CC(=O)O)C(=O)N[C@@H](C)C(=O)N[C@@H](Cc1c[nH]cn1)C(=O)N[C@@H](CC(C)C)C(=O)NCC(=O)N2 [BCY16047, A-(SEQ ID NO: 15)-A]	42
CC[C@H](C)[C@@H]1NC(=O)[C@@H]2CSCC(=O)N3CN(CN(C3)C(=O)CSC[C@@H](C(=O)N[C@@H](CCC(=O)O)C(=O)N3CCC[C@H]3C(=O)N[C@@H](Cc3c[nH]c4ccccc34)C(N)=O)NC(=O)[C@H](Cc3ccc(O)cc3)NC(=O)[C@H](CO)NC1=O)C(=O)CSC[C@H](NC(C)=O)C(=O)N[C@@H](CO)C(=O)N1CCC[C@H]1C(=O)N[C@@H](CC(=O)O)C(=O)N[C@@H](C)C(=O)N[C@@H](Cc1c[nH]cn1)C(=O)N[C@@H](CC(C)C)C(=O)NCC(=O)N2 [BCY17994, Ac-(SEQ ID NO: 9)-EPW]	8

###

Recorded Kd for the following compounds
biological target: human TfR1 (Homo sapiens); experiment: biochemical; assay type: binding; set-up: His6-tagged TfR1 (a.a. 89-760) (ACRO Biosystems, CD1-H5243 and TFR-C524a); His6; purchased R&D Systems or Acro Biosystems 2474-TR or CD1-H5243; conditions: Human TfR1 Kd (nM)
Starred links: 1 amine or outer side, 2 acyl side, 3 side chain; linkers in the order of their positions; H or OH if unused. Positions of bridges follow the written chain, without caps; N, C: chain ends. Residues, ends and D or L forms follow the SMILES beside them. TATB = O=C(C[*:1])N1CN(C(=O)C[*:2])CN(C(=O)C[*:3])C1

compound	Kd
CC[C@H](C)[C@@H]1NC(=O)[C@@H]2CSCC(=O)N3CN(CN(C3)C(=O)CSC[C@@H](C(=O)N[C@@H](C)C(N)=O)NC(=O)[C@H](Cc3ccc(O)cc3)NC(=O)[C@H](CO)NC1=O)C(=O)CSC[C@H](NC(=O)[C@H](C)N)C(=O)N[C@@H](CO)C(=O)N1CCC[C@H]1C(=O)N[C@@H](CC(=O)O)C(=O)N[C@@H](C)C(=O)N[C@@H](Cc1c[nH]cn1)C(=O)N[C@@H](CC(C)C)C(=O)NCC(=O)N2 [BCY15468, A-(SEQ ID NO: 9)-A]	29 nM
CC[C@H](C)[C@@H]1NC(=O)[C@@H]2CSCC(=O)N3CN(CN(C3)C(=O)CSC[C@@H](C(=O)N[C@@H](C)C(N)=O)NC(=O)[C@H](Cc3ccncc3)NC(=O)[C@H](CO)NC1=O)C(=O)CSC[C@H](NC(=O)[C@H](C)N)C(=O)N[C@@H](CO)C(=O)N1CCC[C@H]1C(=O)N[C@@H](CC(=O)O)C(=O)N[C@@H](C)C(=O)N[C@@H](Cc1c[nH]cn1)C(=O)N[C@@H](CC(C)C)C(=O)NCC(=O)N2 [BCY16032, A-(SEQ ID NO: 48)-A]	305 nM
CC[C@H](C)[C@@H]1NC(=O)[C@@H]2CSCC(=O)N3CN(CN(C3)C(=O)CSC[C@H](NC(C)=O)C(=O)N[C@@H](CO)C(=O)N[C@@H](C)C(=O)N[C@@H](CC(=O)O)C(=O)N[C@@H](C)C(=O)N[C@@H](Cc3c[nH]cn3)C(=O)N[C@@H](CC(C)C)C(=O)NCC(=O)N2)C(=O)CSC[C@@H](C(N)=O)NC(=O)[C@H](Cc2ccc(O)cc2)NC(=O)[C@H](CO)NC1=O [BCY17987, Ac-(SEQ ID NO: 19)] (Ac-CSADAHLGCISYC-NH2; linker 1-9-13 via TATB)	50 nM
CC[C@H](C)[C@@H]1NC(=O)[C@@H]2CSCC(=O)N3CN(CN(C3)C(=O)CSC[C@H](NC(C)=O)C(=O)N[C@@H](CO)C(=O)N3CCC[C@H]3C(=O)N[C@@H](CC(=O)O)C(=O)N[C@@H](C)C(=O)N[C@@H](Cc3c[nH]cn3)C(=O)N[C@@H](CC(C)C)C(=O)NCC(=O)N2)C(=O)CSC[C@@H](C(N)=O)NC(=O)[C@H](Cc2ccc(O)cc2)NC(=O)[C@H](CO)NC1=O [BCY15891, Ac-(SEQ ID NO: 9)] (Ac-CSPDAHLGCISYC-NH2; linker 1-9-13 via TATB)	46 nM

###

biological target: cynomolgus TfR1; format: binding
pKd: −log10 of the molar value. Starred links: 1 amine or outer side, 2 acyl side, 3 side chain; linkers in the order of their positions; H or OH if unused. Positions of bridges follow the written chain, without caps; N, C: chain ends. Residues, ends and D or L forms follow the SMILES beside them. TATB = O=C(C[*:1])N1CN(C(=O)C[*:2])CN(C(=O)C[*:3])C1
observed_property: pKd

compound	observed
CC[C@H](C)[C@@H]1NC(=O)[C@@H]2CSCC(=O)N3CN(CN(C3)C(=O)CSC[C@@H](C(=O)N[C@@H](C)C(N)=O)NC(=O)[C@H](Cc3ccc(O)cc3)NC(=O)[C@H](CO)NC1=O)C(=O)CSC[C@H](NC(=O)[C@H](C)N)C(=O)N[C@@H](CO)C(=O)N1CCC[C@H]1C(=O)N[C@@H](CC(=O)O)C(=O)N[C@@H](C)C(=O)N[C@@H](Cc1c[nH]cn1)C(=O)N[C@@H](CC(C)C)C(=O)NCC(=O)N2 [BCY15468, A-(SEQ ID NO: 9)-A]	5.40
CC[C@H](C)[C@@H]1NC(=O)[C@@H]2CSCC(=O)N3CN(CN(C3)C(=O)CSC[C@@H](C(=O)N[C@@H](CCC(=O)O)C(=O)N3CCC[C@H]3C(=O)N[C@@H](Cc3c[nH]c4ccccc34)C(N)=O)NC(=O)[C@H](Cc3ccc(O)cc3)NC(=O)[C@H](CO)NC1=O)C(=O)CSC[C@H](NC(=O)[C@H](C)N)C(=O)N[C@@H](CO)C(=O)N1CCC[C@H]1C(=O)N[C@@H](CC(=O)O)C(=O)N[C@@H](C)C(=O)N[C@@H](Cc1c[nH]cn1)C(=O)N[C@@H](CC(C)C)C(=O)NCC(=O)N2 [BCY17114, A-(SEQ ID NO: 9)-EPW]	6.07
CC[C@H](C)[C@@H]1NC(=O)[C@@H]2CSCC(=O)N3CN(CN(C3)C(=O)CSC[C@@H](C(=O)N[C@@H](C)C(N)=O)NC(=O)[C@H](Cc3ccc(O)c(C(C)(C)C)c3)NC(=O)[C@H](CO)NC1=O)C(=O)CSC[C@H](NC(=O)[C@H](C)N)C(=O)N[C@@H](CO)C(=O)N1CCC[C@H]1C(=O)N[C@@H](CC(=O)O)C(=O)N[C@@H](C)C(=O)N[C@@H](Cc1c[nH]cn1)C(=O)N[C@@H](CC(C)C)C(=O)NCC(=O)N2 [BCY16079, A-(SEQ ID NO: 37)-A]	5.25
CC[C@H](C)[C@@H]1NC(=O)[C@@H]2CSCC(=O)N3CN(CN(C3)C(=O)CSC[C@H](NC(C)=O)C(=O)N[C@@H](C)C(=O)N3CCC[C@H]3C(=O)N[C@@H](CC(=O)O)C(=O)N[C@@H](C)C(=O)N[C@@H](Cc3c[nH]cn3)C(=O)N[C@@H](CC(C)C)C(=O)NCC(=O)N2)C(=O)CSC[C@@H](C(N)=O)NC(=O)[C@H](Cc2ccc(O)cc2)NC(=O)[C@H](CO)NC1=O [BCY17986, Ac-(SEQ ID NO: 24)]	5.33
CC[C@H](C)[C@@H]1NC(=O)[C@@H]2CSCC(=O)N3CN(CN(C3)C(=O)CSC[C@H](NC(C)=O)C(=O)N[C@@H](CO)C(=O)N[C@@H](C)C(=O)N[C@@H](CC(=O)O)C(=O)N[C@@H](C)C(=O)N[C@@H](Cc3c[nH]cn3)C(=O)N[C@@H](CC(C)C)C(=O)NCC(=O)N2)C(=O)CSC[C@@H](C(N)=O)NC(=O)[C@H](Cc2ccc(O)cc2)NC(=O)[C@H](CO)NC1=O [BCY17987, Ac-(SEQ ID NO: 19)] (Ac-CSADAHLGCISYC-NH2; linker 1-9-13 via TATB)	5.29
